// data source = the supplement of paper PMC6089552

System: A673/TR/shEF
Assay: cell viability (LOESS-normalised, relative to median of negative controls) (log2 ratio); higher = more viable cells (less compound effect), active = hit call of the paper (over 3 MAD below the median)
Conditions: 0.25 µM; library screen: screen1; EWS-FLI1 expression: high (no doxycycline); treatment time: 72 h
About 300 (9.4%) of roughly 3,200 compounds showed activity. The sample holds actives, similar compounds and a random draw of the others, so the mix is not that of the screen.
VALUE TYPE: cell viability (log2)

1. CC(=O)O[C@H]1CC[C@]2(C)[C@H]3CC=C4[C@@H]5CC(C)(C)CC[C@]5(C(=O)O)CC[C@@]4(C)[C@]3(C)CC[C@H]2C1(C)C: 0.0325
2. CN1/C(=C(\O)Nc2ccccn2)C(=O)c2ccccc2S1(=O)=O: -0.035
3. O=C(O)c1c2ccccc2cc2ccccc12: 0.0833
4. C=C1CCC(=O)C(C)CCC2C1CC2(C)C (configuration not stated): 0.0584
5. COc1cc(C2NC(=O)NC(C)=C2C(=O)Nc2cccc(Cl)c2)cc(OC)c1OC (configuration not stated): 0.0796
6. COc1cc2ccc(=O)oc2c(OC)c1OC: 0.24
7. CN1[C@@H]2CC[C@@H]1CC(OC(c1ccccc1)c1ccccc1)C2 (some centres not stated): 0.132
8. CCOC(=O)c1sc(C)c2c(=O)n(C3CCCCC3)cnc12: 0.0769
9. C=CC(C)(O)CC/C=C(\C)CCC=C(C)C (configuration not stated): 0.0873
10. COc1cc(CN2CCN(Cc3ccccc3Br)CC2)cc(OC)c1OC: 0.141
11. CC1=C(C(=O)Nc2ccccc2Cl)C(c2ccccc2Cl)NC(=S)N1 (configuration not stated): 0.0969
12. COC(=O)C[C@H]1C(C)(C)C(=O)[C@@H]2CC3C4=CC(=O)O[C@@H](c5ccoc5)[C@]4(C)CC[C@@H]3[C@@]1(C)C2=O (some centres not stated): 0.00456
13. CCOC(=O)C1=C(C)NC2=C(C(=O)CC(C)(C)C2)C1c1coc2ccccc2c1=O (configuration not stated): 0.113
14. CC1=CCCC(=O)C2CC(C)(C)C2CC1 (configuration not stated): 0.0664
15. CNc1ccccc1C(=O)N1CCc2c([nH]c3ccccc23)C1=O: 0.0191
16. CC(=O)O[C@@H]1CC2C(C)(C)[C@H](O)C=C[C@]2(C)C2CC[C@@]3(C)[C@H](c4ccoc4)OC(=O)C4OC43[C@@]21C (some centres not stated): 0.000168
17. O=C(O)c1cc(=O)c(O)c2c(O)c(O)ccc2c1: 0.0685
18. COc1ccc2c(c1)OC[C@@H](Cc1ccc(OC)c(OC)c1)[C@H]2O: 0.0776
19. CCC(C)C(NC)C(=O)O (configuration not stated): 0.07
20. C=C(C)C1Cc2c(ccc(C(=O)O)c2O)O1 (configuration not stated): 0.0493
21. COc1ccc(C2NC(=O)NC(C)=C2C(=O)Nc2ccccc2Cl)cc1OC (configuration not stated): 0.0783
22. CCOC(=O)c1c[nH]c2ccc(OC)cc2c1=O: 0.15

---

Test system: A673/TR/shEF
Assay: cell viability (LOESS-normalised, relative to median of negative controls) (log2 ratio); higher = more viable cells (less compound effect), active = hit call of the paper (over 3 MAD below the median)
Conditions: 0.25 µM; library screen: screen2; EWS-FLI1 expression: high (no doxycycline); treatment time: 72 h
Among all 3,200 compounds or so, about 300 (9.4%) showed activity. The list comes from a sample in which actives are over-represented; it also holds close analogues and randomly drawn compounds.
Possible outcomes: Yes = active, No = inactive

1. OCC(O)C1NCC(O)C1O (stereo not drawn): No
2. C=CCc1ccccc1OCC(O)CNC(C)C (stereo not drawn): Yes
3. CC(C)C[C@H](N)CSSC[C@@H](N)CC(C)C: No
4. CCN(CC)CC(=O)Nc1c(C)cccc1C: No
5. CCCCCCCC/C=C\CCCCCCCC(=O)O: No
6. NCCCCCC(=O)O: No
7. CC(C)NC[C@H](O)COc1cccc2ccccc12: No
8. CC(C)NCC(O)COc1cccc2ccccc12 (stereo not drawn): No
9. NCCCC(=O)O: No
10. CC[N+](CC)(CC)CC(=O)Nc1c(C)cccc1C: No
11. CCCCC1C(=O)N(c2ccccc2)N(c2ccccc2)C1=O: No
12. C/C=C/CC(C)C(O)C1C(=O)NC(CC)C(=O)N(C)CC(=O)N(C)C(CC(C)C)C(=O)NC(C(C)C)C(=O)N(C)C(CC(C)C)C(=O)NC(C)C(=O)NC(C)C(=O)N(C)C(CC(C)C)C(=O)N(C)C(CC(C)C)C(=O)N(C)C(C(C)C)C(=O)N1C (stereo not drawn): No
13. NCCCCC(=O)O: Yes

---

Tested on: A673/TR/shEF
Assay: cell viability (LOESS-normalised, relative to median of negative controls) (log2 ratio); higher = more viable cells (less compound effect), active = hit call of the paper (over 3 MAD below the median)
Details: 0.25 µM; library screen: screen1; EWS-FLI1 expression: low (doxycycline-induced shRNA knockdown); treatment time: 72 h
Among all 3,200 compounds or so, about 300 (9.4%) showed activity. The list comes from a sample in which actives are over-represented; it also holds close analogues and randomly drawn compounds.
Criterion: cell viability (log2) strictly less than 0.05. Met: yes. Not met: no.

1) COc1cc(C2NC(=O)NC(C)=C2C(=O)Nc2cccc(Cl)c2)cc(OC)c1OC (centres undefined): no
2) COc1ccc(OC)c(CN2CCN(Cc3ccco3)CC2)c1: yes
3) C=C1C(C)(C)[C@@]2(Cl)C(Cl)[C@]1(Cl)C(Cl)(Cl)C2(Cl)Cl (some centres undefined): no
4) Nc1ccccc1C(=O)CC(N)C(=O)O (centres undefined): yes
5) O=C(Cc1ccccc1)NO: no
6) CCN(CC)CCCC(C)Nc1c2ccc(Cl)cc2nc2ccc(OC)cc12 (centres undefined): no
7) CC(=O)Oc1ccc(-c2coc3cc(OC(C)=O)ccc3c2=O)cc1: no
8) CCN(CCO)CCCC(C)Nc1ccnc2cc(Cl)ccc12 (centres undefined): no
9) C=C(C)C1COc2cc3oc(=O)ccc3cc2O1 (centres undefined): no
10) CC(=O)O[C@H]1CC[C@@]2(C)C(C[C@@H](OC(C)=O)[C@@]3(C)C4=CC(=O)OC(c5ccoc5)[C@]4(C)CCC23)C1(C)C (some centres undefined): no
11) Cc1cc(O)c(C)c2c1C(=O)Oc1c(C)c(O)c(C(=O)O)c(C)c1O2: no
12) COc1ccccc1C1NC(=S)NC(C)=C1C(=O)Nc1ccccc1Cl (centres undefined): no
13) O=C(Nc1ccccc1Cl)C1c2ccccc2Oc2ccccc21: yes
14) O=C(C=Cc1ccccc1)c1ccccc1O: no
15) COc1ccc(-c2cc(=O)c3c(O)cc(O)cc3o2)cc1O: yes
16) CC(CN1c2ccccc2Sc2cccnc21)N(C)C (centres undefined): yes
17) COc1ccc(-c2cc(=O)c3ccccc3o2)cc1OC: yes
18) CC(=O)O[C@@H]1CC2C(C)(C)[C@H](O)C[C@H](O)[C@]2(C)C2CC[C@@]3(C)[C@H](c4ccoc4)OC(=O)[C@H]4O[C@]43[C@@]21C (some centres undefined): no
19) O=c1c(O)c(-c2cc(O)c(O)c(O)c2)oc2cc(O)ccc12: yes
20) COc1ccc(OC)c(CN2CCN(Cc3ccc([N+](=O)[O-])cc3)CC2)c1: yes
21) O=C(O)/C=C1/CCCc2ccccc2C1O (centres undefined): no
22) O=C(c1cc(-c2ccccc2)nc2ccccc12)N1CCN(c2ccccc2)CC1: yes
23) O=c1c(-c2ccc(O)cc2)coc2cc(O)ccc12: no
24) COc1ccc(OC)c(C2NC(=S)NC(C)=C2C(=O)Nc2ccccc2Cl)c1 (centres undefined): no
25) O=C(c1cc(-c2ccccc2)nc2ccccc12)N1CCCC1: no
26) CC1=C(C(=O)OCCOc2ccccc2)C(c2coc3ccccc3c2=O)C2=C(CCCC2=O)N1 (centres undefined): yes
27) COc1nc(N/N=C/c2ccccc2F)nc(N2CCCCC2)n1: yes
28) CC1CCC(O)C/C1=C/C=C1\CCCC2(C)C1CCC2C(C)/C=C/C(C)C(C)C (centres undefined): yes
29) CC(C)CCCC(C)C1CCC2C3CCC4CC(=O)CCC4(C)C3CCC12C (centres undefined): yes
30) COc1cc(OC)c(C2NC(=S)NC(C)=C2C(=O)Nc2ccccc2Cl)cc1OC (centres undefined): no
31) O=C(NC(=S)Nc1ncc(Br)cc1Br)c1cccs1: yes
32) CCCCOc1ccc(OCCCN2CCOCC2)cc1: yes
33) CC1CN(C(=O)c2cc(-c3ccccc3)nc3ccccc23)CC(C)O1 (centres undefined): yes
34) CCN(CC)CCCC(C)Nc1ccnc2cc(Cl)ccc12 (centres undefined): no
35) COc1ccccc1NC(=O)C1=C(C)NC(=O)NC1c1ccc(Cl)cc1 (centres undefined): yes
36) COc1ccc(C(C)C(=O)c2ccc(O)cc2O)cc1 (centres undefined): yes
37) COc1ccc(NC(=O)/C(=C/c2cccnc2)NC(=O)c2cccs2)cc1: no
38) COc1ccc(-c2cc(=O)c3c(O)c(OC)c(OC)cc3o2)cc1O: yes
39) O=c1cc([C@H]2Oc3cc(O)cc(O)c3C[C@H]2O)cc2c([C@H]3Oc4cc(O)cc(O)c4C[C@H]3O)cc(O)c(O)c2c1O: no
40) COc1ccc(-c2coc3cc(O)ccc3c2=O)cc1: no
41) N[C@@H](C=O)[C@@H](O)[C@H](O)[C@H](O)CO: yes
42) COc1c(O)cc(O)c2c(=O)c(-c3ccc(O)cc3)coc12: no
43) C=C1c2cc(OC)ccc2NC(=O)N1c1ccccc1: no
